- test_method_notes: Tmax in rat at 400 mg/kg bid
- Type: ADME, organism-based
- measurement_conditions: in vivo
assay_readout: Tmax (h)
Report as a plain number; the unit h is understood.

Supply recorded Tmax for `COc1cc(N2CC[C@@H](Oc3ccc(N4N=C(C(F)(F)F)[C@@H](C)[C@@H]4CC(=O)O)cc3)[C@H](C)C2)c(Cl)cn1` here.
8

----------
The following molecules are shown together with reported pEC50 values.
- target_or_system: Free fatty acid receptor 1 (Homo sapiens, UniProt O14842)
- Sequence (O14842 whole entry): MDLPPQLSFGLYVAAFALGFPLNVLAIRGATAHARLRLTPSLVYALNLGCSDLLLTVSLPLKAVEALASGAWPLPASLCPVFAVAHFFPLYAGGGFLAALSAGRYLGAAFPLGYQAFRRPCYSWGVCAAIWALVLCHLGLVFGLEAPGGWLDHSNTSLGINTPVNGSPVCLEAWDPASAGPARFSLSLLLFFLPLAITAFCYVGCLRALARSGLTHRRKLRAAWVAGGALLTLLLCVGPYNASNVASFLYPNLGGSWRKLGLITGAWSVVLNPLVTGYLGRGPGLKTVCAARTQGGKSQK
- test_method_notes: Positive allosteric modulation of human GPR40 expressed in HEK293 cells assessed as cAMP accumulation
- Assay type: cell-based
As a rule, pEC50 stands for the negative log10 of the concentration, concentration in M.

INSERT INTO results (molecular_string, assay_readout, observed_value) VALUES
  ('COCCCO[C@H]1CN(c2ccc(O[C@@H]3CCN(c4cc(OC)ncc4Cl)C[C@H]3C)cc2)[C@@H](CC(=O)O)[C@@H]1C', 'pEC50', 5.74);

Now consider the entry below.
Supply recorded pEC50 for `COc1cc(N2CC[C@@H](Oc3ccc(N4N=C(C(F)(F)F)[C@@H](C)[C@@H]4CC(=O)O)cc3)[C@H](C)C2)c(Cl)cn1` here.
5.44

----------
- test_method_notes: AUC (0 to 24 hrs) in rat at 40 mg/kg bid
- Assay type: ADME, organism-based
- Set-up: dose 40 mg/kg
- measurement_conditions: in vivo
assay_readout: AUC (µM·h)
Report as a plain number; the unit µM·h is understood.

Supply recorded AUC for `COc1cc(N2CC[C@@H](Oc3ccc(N4N=C(C(F)(F)F)[C@@H](C)[C@@H]4CC(=O)O)cc3)[C@H](C)C2)c(Cl)cn1` here.
549

----------
- target_or_system: Free fatty acid receptor 1 (Homo sapiens)
- test_method_notes: Positive allosteric modulation of human GPR40 by calcium based FLIPR analysis
The following compounds are shown together with reported pEC50 values.
As a rule, pEC50 stands for the negative log10 of the concentration, concentration in M.

Please review the entries below; each comes with its answer.
INSERT INTO assay_data (molecular_string, observed_value) VALUES
  ('CCOc1ccc(F)c(N2CC[C@@H](Oc3ccc(N4C[C@H](c5ccccc5)C[C@@H]4CC(=O)O)cc3)[C@H](C)C2)c1', 6.64),
  ('CCOc1ccc(F)c(N2CC[C@@H](Oc3ccc(N4C[C@H](C(F)(F)F)C[C@@H]4CC(=O)O)cc3)[C@H](Cc3ccccc3)C2)c1', 6.13),
  ('CCOc1ccc(F)c(N2CC[C@@H](Oc3ccc(N4C[C@H](C(F)(F)F)C[C@@H]4CC(=O)O)cc3)[C@H](CC(C)C)C2)c1', 6.37),
  ('CCOc1ccc(F)c(N2CC[C@@H](Oc3ccc(N4C[C@H](C(F)(F)F)C[C@@H]4CC(=O)O)cc3)[C@H](CC)C2)c1', 6.37);

Supply recorded pEC50 for `COc1cc(N2CC[C@@H](Oc3ccc(N4CC[C@@H](C)[C@@H]4CC(=O)O)cc3)[C@H](C)C2)c(Cl)cn1` here.
6.96

Supply recorded pEC50 for `CCOc1ccc(F)c(N2CC[C@@H](Oc3ccc(N4C[C@H](OCCCOC)[C@@H](C)[C@@H]4CC(=O)O)cc3)[C@H](C)C2)c1` here.
7.29

Supply recorded pEC50 for `COc1cc(N2CC[C@@H](Oc3ccc(N4C[C@H](OCCCC#N)[C@@H](C)[C@@H]4CC(=O)O)cc3)[C@H](C)C2)c(Cl)cn1` here.
6.92

----------
- test_method_notes: Cmax in rat at 300 mg/kg qd
- Format: ADME, organism-based
- Design: dose 300 mg/kg
- measurement_conditions: in vivo
assay_readout: Cmax (µM)
Report as a plain number; the unit µM is understood.

Supply recorded Cmax for `COCCCO[C@H]1CN(c2ccc(O[C@@H]3CCN(c4cc(OC)ncc4Cl)C[C@H]3C)cc2)[C@@H](CC(=O)O)[C@@H]1C` here.
151

----------
- test_method_notes: Cmax in rat at 40 mg/kg bid
- Assay type: ADME, organism-based
- Parameters: dose 40 mg/kg
- measurement_conditions: in vivo
assay_readout: Cmax (µM)
Report as a plain number; the unit µM is understood.

INSERT INTO assay_data (molecular_string, observed_value) VALUES
  ('COc1ccc(F)c(-c2ccc(Cc3ccc(N4N=C(C(F)(F)F)[C@@H](C)[C@@H]4CC(=O)O)cc3)c(C)c2)c1', 30);

Supply recorded Cmax for `COc1cc(N2CC[C@@H](Oc3ccc(N4N=C(C(F)(F)F)[C@@H](C)[C@@H]4CC(=O)O)cc3)[C@H](C)C2)c(Cl)cn1` here.
64

----------
- test_method_notes: AUC (0 to 24 hrs) in rat at 100 mg/kg, po qd
- Assay type: ADME, organism-based
- Design: dose 100 mg/kg, route po
- measurement_conditions: in vivo
assay_readout: AUC (µM·h)
Report as a plain number; the unit µM·h is understood.

Supply recorded AUC for `COCCCO[C@H]1CN(c2ccc(O[C@@H]3CCN(c4cc(OC)ncc4Cl)C[C@H]3C)cc2)[C@@H](CC(=O)O)[C@@H]1C` here.
1480

----------
The following compounds are shown together with reported pEC50 values.
- target_or_system: Free fatty acid receptor 1 (Homo sapiens)
- test_method_notes: Positive allosteric modulation of human GPR40 by calcium based FLIPR analysis
As a rule, pEC50 stands for the negative log10 of the concentration, concentration in M.

INSERT INTO results (molecular_string, observed_value) VALUES
  ('COc1cc(N2CC[C@@H](Oc3ccc(N4C[C@H](F)[C@@H](C)[C@@H]4CC(=O)O)cc3)[C@H](C)C2)c(Cl)cn1', 7.54),
  ('CCCCCO[C@H]1CN(c2ccc(O[C@@H]3CCN(c4cc(OC)ncc4Cl)C[C@H]3C)cc2)[C@@H](CC(=O)O)[C@@H]1C', 6.72),
  ('COCCOCO[C@H]1CN(c2ccc(O[C@@H]3CCN(c4cc(OC)ncc4Cl)C[C@H]3C)cc2)[C@@H](CC(=O)O)[C@@H]1C', 6.74),
  ('COCCCO[C@H]1CN(c2ccc(O[C@@H]3CCN(c4cc(OC)ncc4Cl)C[C@H]3C)cc2)[C@@H](CC(=O)O)[C@@H]1C', 7.31);

Now consider the entry below.
Supply recorded pEC50 for `CCOc1ccc(F)c(N2CC[C@@H](Oc3ccc(N4C[C@](C)(OC)C[C@@H]4CC(=O)O)cc3)[C@H](C)C2)c1` here.
6.66

----------
- test_method_notes: Cmax in rat at 240 mg/kg qd
- Assay type: ADME, organism-based
- Set-up: dose 240 mg/kg
- measurement_conditions: in vivo
assay_readout: Cmax (µM)
Report as a plain number; the unit µM is understood.

Supply recorded Cmax for `COc1ccc(F)c(-c2ccc(Cc3ccc(N4N=C(C(F)(F)F)[C@@H](C)[C@@H]4CC(=O)O)cc3)c(C)c2)c1` here.
30

----------
- test_method_notes: Metabolic stability in human liver microsome assessed as parent compound remaining after 10 mins
- Type: ADME
- measurement_conditions: liver microsomes, read-out: Stability
assay_readout: remaining at 10 min (%)
Report as a plain number; the unit % is understood.

Supply recorded remaining at 10 min for `COCCCO[C@H]1CN(c2ccc(O[C@@H]3CCN(c4cc(OC)ncc4Cl)C[C@H]3C)cc2)[C@@H](CC(=O)O)[C@@H]1C` here.
100

----------
- test_method_notes: AUC (0 to 24 hrs) in rat at 12 mg/kg qd
- Assay type: ADME, organism-based
- Design: dose 12 mg/kg
- measurement_conditions: in vivo
assay_readout: AUC (µM·h)
Report as a plain number; the unit µM·h is understood.

Supply recorded AUC for `COCCCO[C@H]1CN(c2ccc(O[C@@H]3CCN(c4cc(OC)ncc4Cl)C[C@H]3C)cc2)[C@@H](CC(=O)O)[C@@H]1C` here.
84

----------
- target_or_system: Cytochrome P450 3A4 (Homo sapiens, UniProt P08684)
- Sequence (P08684 whole entry): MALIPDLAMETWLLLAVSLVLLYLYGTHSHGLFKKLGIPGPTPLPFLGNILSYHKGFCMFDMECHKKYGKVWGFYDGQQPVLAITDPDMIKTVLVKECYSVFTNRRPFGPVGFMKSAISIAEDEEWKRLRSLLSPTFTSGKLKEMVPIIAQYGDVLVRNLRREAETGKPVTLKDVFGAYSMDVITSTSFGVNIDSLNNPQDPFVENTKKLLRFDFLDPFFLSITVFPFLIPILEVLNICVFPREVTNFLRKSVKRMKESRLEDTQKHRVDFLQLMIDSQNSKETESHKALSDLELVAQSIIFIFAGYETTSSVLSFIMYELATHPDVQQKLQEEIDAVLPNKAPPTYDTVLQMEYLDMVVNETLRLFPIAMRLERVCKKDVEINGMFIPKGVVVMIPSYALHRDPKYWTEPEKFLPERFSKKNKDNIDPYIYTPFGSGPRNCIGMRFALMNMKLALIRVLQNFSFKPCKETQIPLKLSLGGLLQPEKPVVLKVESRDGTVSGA
assay_readout: pIC50
As a rule, pIC50 stands for the negative log10 of the concentration, concentration in M.

Tell me pIC50 of `COCCCO[C@H]1CN(c2ccc(O[C@@H]3CCN(c4cc(OC)ncc4Cl)C[C@H]3C)cc2)[C@@H](CC(=O)O)[C@@H]1C` when tested on Cytochrome P450 3A4 (Homo sapiens, UniProt P08684).
4.40

----------
- test_method_notes: Solubility of the compound in FeSSIF at pH 5
- Format: ADME
assay_readout: solubility (µg/mL)
Report as a plain number; the unit µg/mL is understood.

INSERT INTO assay_data (molecular_string, observed_value) VALUES
  ('COCCCO[C@H]1CN(c2ccc(O[C@@H]3CCN(c4cc(OC)ncc4Cl)C[C@H]3C)cc2)[C@@H](CC(=O)O)[C@@H]1C', 383);

Now consider the entry below.
Supply recorded solubility for `COc1cc(N2CC[C@@H](Oc3ccc(N4N=C(C(F)(F)F)[C@@H](C)[C@@H]4CC(=O)O)cc3)[C@H](C)C2)c(Cl)cn1` here.
8
